Values were extracted from the supplement of paper PMC4962491.

So I've got a bunch of molecules here, and I need their mitochondrial oxygen consumption rate normalised values.
system: FaDu; test: mitochondrial oxygen consumption rate normalised to cell number, Z score vs plate DMSO wells; higher = higher oxygen consumption (negative = OCR reduction); conditions: 0.4 µM; treatment time 24 h; assay medium: 5 mM glucose, 5 mM pyruvate, 4 mM glutamine
Please respond with just the number, no unit label.

Query block: I am curious: what mitochondrial oxygen consumption rate normalised value has been reported for CC(C(O)c1ccc(O)cc1)N1CCC(Cc2ccccc2)CC1 (stereo unspecified) ?
Result block: 0.565

Query block: Next: CCN(CC)CCCC(C)Nc1c2ccc(Cl)cc2nc2ccc(OC)cc12 (stereo unspecified)
Result block: 0.524

Query block: Next: COc1cc(O)c(C(=O)c2ccccc2)cc1S(=O)(=O)O
Result block: 1.17

Query block: Next: CCCCCCCCNC(C)C(O)c1ccc(SC(C)C)cc1 (stereo unspecified)
Result block: -0.376

Query block: Next: CO[C@H](C(=O)[C@@H](O)[C@@H](C)O)[C@@H]1Cc2cc3cc(O[C@H]4C[C@@H](O[C@@H]5C[C@@H](O)[C@H](O)[C@@H](C)O5)[C@H](O)[C@@H](C)O4)c(C)c(O)c3c(O)c2C(=O)[C@H]1O[C@H]1C[C@@H](O[C@@H]2C[C@@H](O)[C@@H](O[C@@H]3C[C@](C)(O)[C@H](O)[C@@H](C)O3)[C@@H](C)O2)[C@H](O)[C@@H](C)O1
Result block: -7.12

Query block: Next: Cc1cc(C2CCCCC2)n(O)c(=O)c1
Result block: 1.35

* * *

tested on: FaDu; test: mitochondrial oxygen consumption rate normalised to cell number, Z score vs plate DMSO wells; higher = higher oxygen consumption (negative = OCR reduction); details: 2 µM; treatment time 24 h; assay medium: 5 mM glucose, 5 mM pyruvate, 4 mM glutamine;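 also: compound exposure in DMEM (4 mM L-glutamine, 5 mM glucose), antimycin A injected at 2 µM after the basal reading and its residual OCR subtracted from basal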
Quantity Kind: mitochondrial oxygen consumption rate normalised
Please respond with just the number, no unit label.

Query block: I am curious: what mitochondrial oxygen consumption rate normalised value has been reported for CCCCC(CC)CN1CN(CC(CC)CCCC)CC(C)(N)C1 (centres undefined) ?
Result block: 0.773

Query block: Next: CCc1c2c(nc3ccc(OC(=O)N4CCC(N5CCCCC5)CC4)cc13)-c1cc3c(c(=O)n1C2)COC(=O)[C@]3(O)CC
Result block: 1.27

Query block: Next: CCCCC(CC)CN=C(N)N=C(N)NCCCCCCNC(N)=NC(N)=NCC(CC)CCCC (centres undefined)
Result block: -0.611

Query block: Next: CCC(C)n1ncn(-c2ccc(N3CCN(c4ccc(OCC5COC(Cn6cncn6)(c6ccc(Cl)cc6Cl)O5)cc4)CC3)cc2)c1=O (centres undefined)
Result block: -0.554

Query block: Next: CCCCCCCCNC(C)C(O)c1ccc(SC(C)C)cc1 (centres undefined)
Result block: 0.293

Query block: Next: CCCCCC(=O)O[C@]1(C(C)=O)CC[C@H]2[C@@H]3CCC4=CC(=O)CC[C@]4(C)[C@H]3CC[C@@]21C
Result block: 0.00301

Query block: Next: CNC(=O)c1cc(Oc2ccc(NC(=O)Nc3ccc(Cl)c(C(F)(F)F)c3)cc2)ccn1
Result block: -1.86

Query block: Next: CC[n+]1c(-c2ccccc2)c2cc(N)ccc2c2ccc(N)cc21
Result block: -3.43

Query block: Next: COc1c2occc2cc2ccc(=O)oc12
Result block: -0.807
